Reference source: patent US20260242735A1

system.under.test: human CD33 Q24I (human, UniProt P20138 18-364)
Sequence (P20138 18-364 Q24I limits assumed): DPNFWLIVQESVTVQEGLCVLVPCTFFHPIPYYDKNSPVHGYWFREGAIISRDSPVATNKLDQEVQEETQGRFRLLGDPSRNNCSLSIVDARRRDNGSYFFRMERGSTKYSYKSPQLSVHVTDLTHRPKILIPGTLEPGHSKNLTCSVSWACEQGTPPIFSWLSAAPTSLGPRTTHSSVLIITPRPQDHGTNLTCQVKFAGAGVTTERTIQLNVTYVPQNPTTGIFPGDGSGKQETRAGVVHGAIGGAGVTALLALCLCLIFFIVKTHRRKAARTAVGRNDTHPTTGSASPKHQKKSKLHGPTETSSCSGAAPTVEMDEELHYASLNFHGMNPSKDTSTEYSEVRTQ
experimental.protocol: flow cytometry, mutant on cells, IgG
quantity.kind: Mean % WT Binding (% WT binding)
Respond numerically; units are % WT binding and should not be typed.

Answered cases to consult:
{"columns": ["binder", "Mean % WT Binding, % WT binding"],
 "data": [
  ["Refmab #1 (antibody, human IgG1, V domains shown, Tested in IgG format; human IgG1 (Absolute Antibody hP67.6, Cat. No. Ab00283-10.0); also called hP67.6) VH: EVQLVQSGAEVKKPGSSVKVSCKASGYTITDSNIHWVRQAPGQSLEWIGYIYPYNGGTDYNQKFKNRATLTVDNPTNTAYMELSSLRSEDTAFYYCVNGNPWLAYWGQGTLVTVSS VL: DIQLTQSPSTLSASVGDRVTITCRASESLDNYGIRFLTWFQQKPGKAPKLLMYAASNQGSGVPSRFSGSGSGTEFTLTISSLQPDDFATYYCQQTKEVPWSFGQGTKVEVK", 80],
  ["Refmab #4 (antibody, human IgG1, V domains shown, Tested in IgG format; human IgG1 Fc silent (PG-LALA)) VH: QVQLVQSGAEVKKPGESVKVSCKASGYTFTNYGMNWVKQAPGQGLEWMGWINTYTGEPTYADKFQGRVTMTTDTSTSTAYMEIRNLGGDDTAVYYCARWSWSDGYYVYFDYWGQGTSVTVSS VL: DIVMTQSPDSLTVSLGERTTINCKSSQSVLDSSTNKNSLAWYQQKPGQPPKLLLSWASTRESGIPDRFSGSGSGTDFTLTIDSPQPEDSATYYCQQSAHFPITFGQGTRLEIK", 86.6],
  ["Refmab #2 (antibody, human IgG1, V domains shown, Tested in IgG format; human IgG1 Fc silent (PG-LALA)) VH: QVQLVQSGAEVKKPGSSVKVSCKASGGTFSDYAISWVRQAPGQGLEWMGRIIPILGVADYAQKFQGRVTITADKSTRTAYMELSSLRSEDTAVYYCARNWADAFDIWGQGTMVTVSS VL: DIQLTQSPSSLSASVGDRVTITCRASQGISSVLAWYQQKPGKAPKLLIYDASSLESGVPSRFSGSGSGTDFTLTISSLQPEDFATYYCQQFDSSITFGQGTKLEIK", 96.8]
]}

Shifting focus to the binder that follows.
Name the recorded Mean % WT Binding of the item Refmab #3 (antibody, human IgG1, V domains shown, Tested in IgG format; human IgG1 Fc silent (PG-LALA)) VH: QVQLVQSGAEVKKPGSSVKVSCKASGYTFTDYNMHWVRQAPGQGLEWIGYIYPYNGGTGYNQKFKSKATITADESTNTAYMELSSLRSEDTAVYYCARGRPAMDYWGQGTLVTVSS VL: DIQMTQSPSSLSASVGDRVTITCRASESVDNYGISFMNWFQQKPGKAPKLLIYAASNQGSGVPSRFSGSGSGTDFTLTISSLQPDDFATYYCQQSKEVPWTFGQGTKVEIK in your answer. 61.3
